Target: SARS-CoV-2 fusion peptide (FP) coldspot peptide, 812-831 (SARS-CoV-2 (ancestral), biotin-Ahx at the N-terminus; C-terminal amidation)
measure-name: binding result

1. fp.004 (antibody, V domains shown) VH: VQLVESGGGVVQPGTSLRLSCVASGFTFSNYAMHWVRQAPGKGLEWVAIISFDTRNTASAASVKGRFNISRDNSKNSLYLQMNSLRPEDTGVYYCARDLFLSDYDSRGYDPITGGFDCWGQGTLVTVSS VL: EIVMTQSPAALSVSPGEGATLSCRASQSVGSRLAWYQQKLGRPPRLLIYGASTRATGIPARFSGSGSGTEFTLTISSLQSEDFAVYYCQQYNDWPLLTFGGGTKVKIK ... binds
2. fp.005 (antibody, V domains shown) VH: VQLVESGGGVVQPGNSLRLSCAASGFRFNNYAMHWVRQAPGKGLEWVAIISYEARNEKYADSVKGRFSISRDNAKNTLYLQMNSLRADDTGVYYCARDLFLSDYDTSGYDRTRGGFDYWGQGALVTVSS VL: EIVMTQSPATLSVSPGERATLSCRASQSVSNGLAWYQHRFGQPPRLLIYGASTRATGIPTRFSGSGSGTEFTLTISSLQSEDFAVYYCQQYDDWPLITFGGGTKVEIK ... binds
3. fp.010 (antibody, V domains shown) VH: EVQLLESGGGLVQPGGSLRLSCAASGFTFSTYAMNWVRQAPGKGLEWVSAISSSGLSTQYADSVRGRFTISRDTSKNTLYLHMNSLRAGDTAVYYCAKVEYSGYDPRGPFDSWGQGTLVTVSS VL: DIQMTQSPSTLSASVGDRVTITCRASQSISGWLAWYQQKPGRAPKLLIYKASSLERGVPSRFSGSGSGTEFTLTISSLQPDDFATYYCQEYSSYPLCTFGQGTKLEIK ... binds
4. fp.002 (antibody, V domains shown) VH: VQLVESGGGVVQPGTSLRLSCAGSGFNFDNYAIHWVRQAPGQGLEWVAIISYEARNKKYAGSVTGRFSISRDNSKSMVYLQMDSLRGEDTAVYYCARDLFLSDYDRSGYDPTRGGFDLWGQGTLVTVSS VL: EIVMTQSPATLSVSPGERATLSCRASQSVSSSLAWYQHKLGQAPRLLIYGASTRATGIPGRFSGSGSGTEFTLTISSLQSEDVAIYYCQQYGDWPLVTFGGGTKVEIK ... binds
5. fp.001 (antibody, V domains shown) VH: VQLVESGGGVVQPGRPLRLSCSGSGFIFSNYAMHWVRQAPGKGLEWVAIISFDARNKRYADSVEGRFTISRDNSKNILYLQMNSLRLEDSAVYFCARDLFLSDYDNGVYDPTRGGFDYWGQGTLVTVSS VL: EIVMTQSPATLSLSPGERATLSCRASQSVNNRLAWYQQKLGQPPRLLISGASTRATGIPARFTGSGSGTEFTLTISSLQSEDFAVYYCQQYHDWPLLSFGGGTKVEIK ... binds
